The entries below come with measured activity at 200 µM values attached.
System: HFLS-OA cells
Assay: Suppressive action to TNF-α-induced proliferation of synovial cells (HFLS-OA), BrdU ELISA
Assay type: cell-based
Settings: Synovial cell, 120 h; 200 μmol/L test substance; human recombinant TNF-α 10 ng/mL; 5 days; BrdU incorporation increase by TNF-α = 100%; read-out: Synovial Cell Proliferation Rate (%)
Property Measured: activity at 200 µM (%)

molecule_smiles=O=c1oc2c(OS(=O)(=O)c3ccccc3[N+](=O)[O-])cccc2cc1NS(=O)(=O)c1ccccc1[N+](=O)[O-] property_measured="activity at 200 µM" experimental_result=-23.8
molecule_smiles=O=c1oc2c(OS(=O)(=O)c3ccc(-c4ccccc4)cc3)cccc2cc1NS(=O)(=O)c1ccc(-c2ccccc2)cc1 property_measured="activity at 200 µM" experimental_result=-37.9
molecule_smiles=O=c1oc2c(OS(=O)(=O)c3ccccc3)cccc2cc1NS(=O)(=O)c1ccc(-c2ccccc2)cc1 property_measured="activity at 200 µM" experimental_result=-33
molecule_smiles=N#Cc1cccc(S(=O)(=O)Nc2cc3cccc(OS(=O)(=O)c4cccc(C#N)c4)c3oc2=O)c1 property_measured="activity at 200 µM" experimental_result=-60.3

====

Tested on: HFLS-OA cells
Test: Suppressive action to TNF-α-induced proliferation of synovial cells (HFLS-OA), BrdU ELISA
Assay type: cell-based
Conditions: Synovial cell, 120 h; 200 μmol/L test substance; human recombinant TNF-α 10 ng/mL; 5 days; BrdU incorporation increase by TNF-α = 100%; read-out: Synovial Cell Proliferation Rate (%)
Field 'label' (enum: 1.0 / 0.0). Set to 1.0 when activity at 200 µM is strictly under -40%; else 0.0.

compound="COc1ccccc1S(=O)(=O)Nc1cc2cccc(OS(=O)(=O)c3ccccc3OC)c2oc1=O [Compound 3]" measured_target="HFLS-OA cells" classification=1.0
compound="N#Cc1ccccc1S(=O)(=O)Nc1cc2cccc(OS(=O)(=O)c3ccccc3C#N)c2oc1=O [Compound 15]" measured_target="HFLS-OA cells" classification=0.0
compound="N#Cc1ccc(S(=O)(=O)Nc2cc3cccc(OS(=O)(=O)c4ccccc4)c3oc2=O)cc1 [Compound 21]" measured_target="HFLS-OA cells" classification=1.0
compound="O=c1oc2c(OS(=O)(=O)c3cccc(C(F)(F)F)c3)cccc2cc1NS(=O)(=O)c1ccc(C(F)(F)F)cc1 [Compound 68]" measured_target="HFLS-OA cells" classification=1.0
compound="O=c1oc2c(OS(=O)(=O)c3ccccc3Cl)cccc2cc1NS(=O)(=O)c1ccccc1Cl [Compound 9]" measured_target="HFLS-OA cells" classification=1.0

====

Tested on: HFLS-OA cells
Test: Suppressive action to TNF-α-induced proliferation of synovial cells (HFLS-OA), BrdU ELISA
Type: cell-based
Settings: Synovial cell, 120 h; 200 μmol/L test substance; human recombinant TNF-α 10 ng/mL; 5 days; BrdU incorporation increase by TNF-α = 100%; read-out: Synovial Cell Proliferation Rate (%)
Description: Evaluation of Suppressive Action to Cell Proliferation of Synovial Cells (HFLS-OA) Derived from Tissues of Human Osteoarthritis (1) Incubation of HFLS-OA Cells […] A kit [Cell Proliferation ELISA, BrdU (colorimetric) (Roche Diagnostics)] was used and measurement was conducted according to the protocol attached to the kit. […] After washing with PBS, 100 μL of a substrate liquid (tetramethylbenzidine) was added to each well and the absorbance was measured. […]
Where a name gives a salt, the structure may show the parent alone.
Property Measured: activity at 200 µM (%)

compound=O=c1oc2c(OS(=O)(=O)c3cccc([N+](=O)[O-])c3)cccc2cc1NS(=O)(=O)c1ccc(-c2ccccc2)cc1 property_measured="activity at 200 µM" experimental_result=-32.2
compound=O=c1oc2c(OS(=O)(=O)c3cccc(C(F)(F)F)c3)cccc2cc1NS(=O)(=O)c1cccc(C(F)(F)F)c1 property_measured="activity at 200 µM" experimental_result=-40
compound=O=c1oc2c(OS(=O)(=O)c3cccc(Cl)c3)cccc2cc1NS(=O)(=O)c1cccc(Cl)c1 property_measured="activity at 200 µM" experimental_result=-94.4
compound=Cc1ccccc1S(=O)(=O)Nc1cc2cccc(OS(=O)(=O)c3ccccc3C)c2oc1=O property_measured="activity at 200 µM" experimental_result=-77.4
compound=O=c1oc2c(OS(=O)(=O)c3ccccc3)cccc2cc1NS(=O)(=O)c1cccc([N+](=O)[O-])c1 property_measured="activity at 200 µM" experimental_result=-40
compound=O=c1oc2c(OS(=O)(=O)c3cccc(C(F)(F)F)c3)cccc2cc1NS(=O)(=O)c1ccc(-c2ccccc2)cc1 property_measured="activity at 200 µM" experimental_result=-35.5
compound=CCOC(=O)c1ccc(S(=O)(=O)Oc2cccc3cc(NS(=O)(=O)c4cccc([N+](=O)[O-])c4)c(=O)oc23)cc1 property_measured="activity at 200 µM" experimental_result=-34.9
compound=O=c1oc2c(OS(=O)(=O)c3ccccc3)cccc2cc1NS(=O)(=O)c1cccc(F)c1 property_measured="activity at 200 µM" experimental_result=-40.9
compound=O=c1oc2c(OS(=O)(=O)c3ccc(-c4ccccc4)cc3)cccc2cc1NS(=O)(=O)c1cccc(Br)c1 property_measured="activity at 200 µM" experimental_result=-45.9
compound=COc1ccc(S(=O)(=O)Nc2cc3cccc(OS(=O)(=O)c4ccc(OC)cc4)c3oc2=O)cc1 property_measured="activity at 200 µM" experimental_result=-39.1
compound="Nc1ccc(S(=O)(=O)Oc2cccc3cc(NS(=O)(=O)c4cccc(C(F)(F)F)c4)c(=O)oc23)cc1 [Compound 46, hydrochloride]" property_measured="activity at 200 µM" experimental_result=-37
compound=O=c1oc2c(OS(=O)(=O)c3ccc(-c4ccccc4)cc3)cccc2cc1NS(=O)(=O)c1ccc(C(F)(F)F)cc1 property_measured="activity at 200 µM" experimental_result=-45.9
compound=O=c1oc2c(OS(=O)(=O)c3ccc(F)cc3)cccc2cc1NS(=O)(=O)c1ccc(F)cc1 property_measured="activity at 200 µM" experimental_result=-34.9
compound=N#Cc1ccc(S(=O)(=O)Nc2cc3cccc(OS(=O)(=O)c4ccc(C#N)cc4)c3oc2=O)cc1 property_measured="activity at 200 µM" experimental_result=-54.1
